# SYSTEM NAME: SARS-CoV-2 Mpro (Severe acute respiratory syndrome coronavirus 2)
# PROTOCOL DESCRIPTION: SARS-CoV-2 Mpro enzymatic inhibition assay (fluorescence)
# Assay type: biochemical
# ASSAY CONDITIONS: mean; 25 nM protein, 25 μM substrate; 30 min pre-incubation, 60 min at 30° C.; read-out: Mpro_SARS-CoV-2 mean IC50
Entries and their IC50 values follow.

The cases that follow already have their IC50 on record.
{"MOLECULE": "CC1(C)[C@@H]2[C@@H](C(=O)N[C@H](C=O)C[C@@H]3CCNC3=O)N(C(=O)c3cc4c(C#N)cccc4[nH]3)C[C@@H]21", "IC50": "26 nM"}
{"MOLECULE": "CC1CC(C(=O)N2C[C@H]3[C@@H]([C@H]2C(=O)N[C@H](C=O)C[C@@H]2CCNC2=O)C3(C)C)C1 (stereo partly drawn)", "IC50": "82.2 nM"}

Please turn your attention to the following entry.
Q: Which IC50 is reported for this molecule? CC(C)c1cccc2[nH]c(C(=O)N3C[C@H]4[C@@H]([C@H]3C(=O)N[C@H](C=O)C[C@@H]3CCNC3=O)C4(C)C)cc12
Result: 19.8 nM

* * *

Entries and their IC50 values follow.
# SYSTEM NAME: UniProtKB P0C6X2
# Sequence (P0C6X2 3335-3637 limits assumed): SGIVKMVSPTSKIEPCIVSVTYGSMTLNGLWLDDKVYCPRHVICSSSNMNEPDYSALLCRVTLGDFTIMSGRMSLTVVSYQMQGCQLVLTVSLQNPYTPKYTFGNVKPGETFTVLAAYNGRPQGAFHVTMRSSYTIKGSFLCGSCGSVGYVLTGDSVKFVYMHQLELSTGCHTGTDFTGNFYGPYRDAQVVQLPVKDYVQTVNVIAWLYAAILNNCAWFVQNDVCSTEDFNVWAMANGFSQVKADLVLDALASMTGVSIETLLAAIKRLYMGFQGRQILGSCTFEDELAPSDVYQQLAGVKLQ
# PROTOCOL DESCRIPTION: HCoV-HKU1 Mpro enzymatic inhibition assay (fluorescence)
# Assay type: biochemical
Kindly provide the numeric value in nM only, without the unit symbol.

The cases that follow already have their IC50 on record.
{"STRUCTURE": "CC1(C)[C@@H]2[C@@H](C(=O)N[C@H](C=O)C[C@@H]3CCNC3=O)N(C(=O)c3cc4c(Cl)cccc4[nH]3)C[C@@H]21", "IC50 [nM]": 18}
{"STRUCTURE": "CC1(C)[C@@H]2[C@@H](C(=O)N[C@H](C=O)C[C@@H]3CCNC3=O)N(C(=O)c3cc4ccc(C#N)cc4[nH]3)C[C@@H]21", "IC50 [nM]": 40.9}

Q: API: value(readout= IC50, system= UniProtKB P0C6X2, query= COc1cccc2cc(C(=O)N3C[C@H]4[C@@H]([C@H]3C(=O)N[C@H](C=O)C[C@@H]3CCNC3=O)C4(C)C)[nH]c12 )
Result: 61.1

* * *

# SYSTEM NAME: SARS-CoV-2 Mpro (Severe acute respiratory syndrome coronavirus 2)
# PROTOCOL DESCRIPTION: SARS-CoV-2 Mpro enzymatic inhibition assay (fluorescence)
# Format: biochemical
Entries and their IC50 values follow.
Kindly provide the numeric value in nM only, without the unit symbol.

The cases that follow already have their IC50 on record.
{"STRUCTURE": "CC1(C)[C@@H]2[C@@H](C(=O)N[C@H](C#N)C[C@@H]3CCNC3=O)N(C(=O)C3(c4ccccc4)CCCC3)C[C@@H]21", "UNIT ANNOTATION": "nM", "IC50": 470}
{"STRUCTURE": "CC1(C)[C@@H]2[C@@H](C(=O)N[C@H](C=O)C[C@@H]3CCNC3=O)N(C(=O)c3cc4ncccc4[nH]3)C[C@@H]21", "UNIT ANNOTATION": "nM", "IC50": 35.5}
{"STRUCTURE": "O=C[C@H](C[C@@H]1CCNC1=O)NC(=O)[C@@H]1C[C@@H](C2CCCCC2)CN1C(=O)c1cc2cccc(Cl)c2[nH]1", "UNIT ANNOTATION": "nM", "IC50": 35.3}
{"STRUCTURE": "COc1cc2cc(C(=O)N3C[C@H]4[C@@H]([C@H]3C(=O)N[C@H](C=O)C[C@@H]3CCNC3=O)C4(C)C)[nH]c2cc1OC", "UNIT ANNOTATION": "nM", "IC50": 97.3}
{"STRUCTURE": "CC1(C)[C@@H]2[C@@H](C(=O)N[C@H](C=O)C[C@@H]3CCNC3=O)N(C(=O)c3cc4cc(Cl)ccc4[nH]3)C[C@@H]21", "UNIT ANNOTATION": "nM", "IC50": 40.9}

Q: Which IC50 is reported for this molecule? CC1(C)[C@@H]2[C@@H](C(=O)N[C@H](C=O)C[C@@H]3CCNC3=O)N(C(=O)c3cc4cccc(C(F)(F)F)c4[nH]3)C[C@@H]21
Result: 18.3

Q: Which IC50 is reported for this molecule? C[C@@H](C(=O)N1C[C@H]2[C@@H]([C@H]1C(=O)N[C@H](C=O)C[C@@H]1CCNC1=O)C2(C)C)C1CCCCC1
Result: 27.8

Q: Which IC50 is reported for this molecule? CC1(C)[C@@H]2[C@@H](C(=O)N[C@H](C#N)C[C@@H]3CCNC3=O)N(C(=O)c3cc4cccc(Cl)c4[nH]3)C[C@@H]21
Result: 434

Q: Which IC50 is reported for this molecule? CC1(C)[C@@H]2[C@@H](C(=O)N[C@H](C=O)C[C@@H]3CCNC3=O)N(C(=O)c3cc4ccc(C#N)cc4[nH]3)C[C@@H]21
Result: 32

Q: Which IC50 is reported for this molecule? CC1(C)C[C@@H](C(=O)N[C@H](C=O)C[C@@H]2CCNC2=O)N(C(=O)c2cc3cccc(F)c3[nH]2)C1
Result: 26.3

Q: Which IC50 is reported for this molecule? O=C[C@H](C[C@@H]1CCNC1=O)NC(=O)[C@@H]1C[C@H](C2CCCCC2)CN1C(=O)c1cc2ccccc2[nH]1
Result: 63.9

Q: Which IC50 is reported for this molecule? CC1(C)[C@@H]2[C@@H](C(=O)N[C@H](C=O)C[C@@H]3CCNC3=O)N(C(=O)c3cc4c(F)c(Cl)ccc4[nH]3)C[C@@H]21
Result: 126

Source of measurements: patent US20260355212A1
